# reported -T∆S, CARM1 N161E; entries follow
target: CARM1 N161E (Homo sapiens, UniProt Q86X55, N161E); assay: ITC with CARM1 N161E mutant; settings: ITC; calculated indirectly
Sequence (Q86X55 135-479 N161E): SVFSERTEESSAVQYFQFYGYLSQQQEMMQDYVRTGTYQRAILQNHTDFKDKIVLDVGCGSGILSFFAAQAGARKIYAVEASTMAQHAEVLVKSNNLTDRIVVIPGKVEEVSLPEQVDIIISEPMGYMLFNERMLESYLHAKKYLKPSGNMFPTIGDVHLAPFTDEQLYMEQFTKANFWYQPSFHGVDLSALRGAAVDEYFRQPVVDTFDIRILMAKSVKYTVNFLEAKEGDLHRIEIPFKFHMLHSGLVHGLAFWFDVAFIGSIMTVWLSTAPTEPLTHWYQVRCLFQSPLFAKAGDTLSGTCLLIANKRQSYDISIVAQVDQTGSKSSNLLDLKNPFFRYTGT
Numeric only. Scale: kcal/mol

molecule | tested_target | -T∆S, CARM1 N161E, kcal/mol
Nc1ncnc2c1ncn2[C@@H]1O[C@H](CN(CCCNc2ccccn2)CC[C@H](N)C(=O)O)[C@@H](O)[C@H]1O | CARM1 N161E (Homo sapiens, UniProt Q86X55, N161E) | 13.3
Nc1ncnc2c1ncn2[C@@H]1O[C@H](CSCC[C@H](N)C(=O)O)[C@@H](O)[C@H]1O [SAH, S-Adenosylhomocysteine, reference compound] | CARM1 N161E (Homo sapiens, UniProt Q86X55, N161E) | 20.6
NCCCN(CCCNc1ncccn1)C[C@H]1O[C@@H](n2cnc3c(N)ncnc32)[C@H](O)[C@@H]1O | CARM1 N161E (Homo sapiens, UniProt Q86X55, N161E) | 18.9

Reported -T∆S, CARM1 N161E for NCCCN(CCCNc1ccccn1)C[C@H]1O[C@@H](n2cnc3c(N)ncnc32)[C@H](O)[C@@H]1O : what is it?
11.9
